These data points were gathered from patent US5883121A.

# Measured target: cathepsin B (Rattus norvegicus)
# Sequence (P00787 129-333 limits assumed): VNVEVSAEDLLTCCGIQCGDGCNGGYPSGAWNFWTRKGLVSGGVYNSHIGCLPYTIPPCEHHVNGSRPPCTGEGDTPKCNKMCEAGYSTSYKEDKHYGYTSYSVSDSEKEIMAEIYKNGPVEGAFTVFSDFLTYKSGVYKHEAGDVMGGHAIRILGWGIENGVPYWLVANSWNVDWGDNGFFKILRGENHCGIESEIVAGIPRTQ
# Sequence (P00787 80-126 limits assumed): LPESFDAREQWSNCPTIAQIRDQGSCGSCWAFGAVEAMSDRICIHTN
Structures can show the parent of a compound that is named as a salt.
Property label: IC50 (µM)
Dear colleague, please return just the value in µM, with no unit written.

Here are 4 compounds together with their reported answers.
COc1ccccc1NC(=O)[C@H](CCCCN)NC(=O)[C@H]1O[C@@H]1C(=O)N[C@@H](Cc1ccccc1)C(N)=O [Example 37, hydrochloride]
25
NCCCC[C@H](NC(=O)[C@H]1O[C@@H]1C(=O)N[C@@H](Cc1ccccc1)C(=O)NCc1ccccc1)C(=O)Nc1cccc2ccccc12 [Example 26, hydrochloride]
3
NCCCC[C@H](NC(=O)[C@H]1O[C@@H]1C(=O)Nc1cccc2ccccc12)C(=O)Nc1cccc2ccccc12 [Example 30, hydrochloride]
6.8
NCCCC[C@H](NC(=O)[C@H]1O[C@@H]1C(=O)N[C@@H](Cc1ccccc1)C(N)=O)C(=O)Nc1ccc(Cl)c2ccccc12 [Example 48, hydrochloride]
3.1

Could you share which IC50 value was measured for NCCCC[C@H](NC(=O)[C@H]1O[C@@H]1C(=O)N[C@@H](Cc1ccccc1)C(=O)NCCc1ccccc1)C(=O)Nc1cccc2ccccc12 [Example 24, hydrochloride] ? 2.1

Then what about the compound "CC(=O)NCCCC[C@H](NC(=O)[C@H]1O[C@@H]1C(=O)N[C@@H](Cc1ccccc1)C(=O)NCCc1ccccc1)C(=O)Nc1cccc2ccccc12" ? 7

###

# Measured target: cathepsin L (Rattus norvegicus)
# Sequence (P07154 114-288 limits assumed): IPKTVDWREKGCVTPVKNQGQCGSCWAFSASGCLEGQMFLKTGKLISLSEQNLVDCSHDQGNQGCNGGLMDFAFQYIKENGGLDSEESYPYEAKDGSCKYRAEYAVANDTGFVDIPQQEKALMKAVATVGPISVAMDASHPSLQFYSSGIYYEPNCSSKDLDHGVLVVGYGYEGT
# Sequence (P07154 291-334 limits assumed): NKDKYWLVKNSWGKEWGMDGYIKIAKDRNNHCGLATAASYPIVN
Counter-ions that a name gives are not always drawn.
The reader will find reported pIC50 values listed item by item below.
Kindly note that pIC50 refers to -log10 of the concentration in mol/L and answer with the value alone.

NCCCC[C@H](NC(=O)[C@H]1O[C@@H]1C(=O)N[C@@H](Cc1ccccc1)C(N)=O)C(=O)Nc1cccc2ccccc12 [Example 14, hydrochloride]
7.82

Could you share which pIC50 value was measured for NCCCC[C@H](NC(=O)[C@H]1O[C@@H]1C(=O)N[C@@H](Cc1ccccc1)C(N)=O)C(=O)N1CCc2ccccc21 [Example 45, hydrochloride] ? 7.15

Then what about the molecule NCCCC[C@H](NC(=O)[C@H]1O[C@@H]1C(=O)NCCc1ccccc1)C(=O)Nc1cccc2ccccc12 [Example 2, hydrochloride] ? 7.46

Then what about the molecule NCCCC[C@H](NC(=O)[C@H]1O[C@@H]1C(=O)N[C@@H](Cc1ccccc1)C(=O)NCCc1ccccc1)C(=O)Nc1ccccc1 [Example 35, hydrochloride] ? 8.77

Then what about the molecule "CC(=O)NCCCC[C@H](NC(=O)[C@H]1O[C@@H]1C(=O)N[C@@H](Cc1ccccc1)C(=O)NCCc1ccccc1)C(=O)Nc1cccc2ccccc12" ? 10.40

###

Reported pIC50, cathepsin L (Rattus norvegicus).
Where a name gives a salt, the structure may show the parent alone.
Kindly note that pIC50 refers to -log10 of the concentration in mol/L and answer with the value alone.

NCCCC[C@H](NC(=O)[C@H]1O[C@@H]1C(=O)N[C@@H](Cc1ccccc1)C(=O)NCCc1ccccc1)C(=O)Nc1cccc2ccccc12 [Example 24, hydrochloride]
10.52
CCNC(=O)[C@H](Cc1ccccc1)NC(=O)[C@H]1O[C@@H]1C(=O)N[C@@H](CCCCN)C(=O)Nc1ccccc1 [Example 67, hydrochloride]
7.44

Would you kindly look at the next entry?
Could you share which pIC50 value was measured for NCCCC[C@H](NC(=O)[C@H]1O[C@@H]1C(=O)N[C@@H](Cc1ccccc1)C(N)=O)C(=O)Nc1ccccc1 [Example 55, hydrochloride] ? 7.74
